# MEASUREMENT TARGET: TabsPBP2
# PROTOCOL DESCRIPTION: Competitive fluorescence binding assay with 1-NPN probe
# CONDITIONS USED: competitive displacement of 1-NPN (2 µM), 2 μM TabsPBP2, pH 7.4
pIC50: −log10 of the molar value.
Response key: Y means pIC50 >= 5; N means pIC50 < 5.

>>> qualitative_label("COC(=O)c1ccccc1O [methyl salicylate, Methyl salicylate]")
"N"
>>> qualitative_label("C=CC(=C)CCC=C(C)C [myrcene, Myrcene]")
"Y"
>>> qualitative_label("CC/C=C\\CCO [cis-3-hexen-l-ol, cis-3-Hexen-l-ol]")
"N"
>>> qualitative_label("CC1=CC=C(C(C)C)CC1 [α-terpinene, α-Terpinene]")
"N"

====

# MEASUREMENT TARGET: TabsPBP2
# PROTOCOL DESCRIPTION: Competitive fluorescence binding assay with 1-NPN probe
# CONDITIONS USED: competitive displacement of 1-NPN (2 µM), 2 μM TabsPBP2, pH 7.4; calculated from IC50
# Experimental: Fluorescence binding assays were performed on a Cary Eclipse Fluorescence Spectrophotometer (Agilent Technologies, Palo Alto, CA, USA) to quantify TabsPBP2’s binding affinity for sex pheromones and tomato volatiles. […] Fluorescence was excited at 337 nm with emission scanned from 350 and 500 nm. Ligand binding affinities were measured via competitive assays with 1-NPN (2 µM). […]
pKi: −log10 of the molar value.
Each item that follows carries a reported pKi.
ENDPOINT LABEL: pKi

>>> recorded_value("CC1=CC=C(C(C)C)CC1")
4.99
>>> recorded_value("C=CC(=C)CCC=C(C)C")
5.33
>>> recorded_value("C=C1CCC2(C(C)C)CC12 (stereo not shown)")
4.94
>>> recorded_value("COC(=O)c1ccccc1O [methyl salicylate, Methyl salicylate]")
4.89
>>> recorded_value("CC/C=C\\CCO [cis-3-hexen-l-ol, cis-3-Hexen-l-ol]")
4.86
>>> recorded_value("CC1=CC2C(CC1)C2(C)C (stereo not shown)")
5.26
>>> recorded_value("CC1=CCC2CC1C2(C)C (stereo not shown)")
5.13

====

Each item that follows carries a reported pIC50.
# MEASUREMENT TARGET: TabsPBP2
# PROTOCOL DESCRIPTION: Competitive fluorescence binding assay with 1-NPN probe
# CONDITIONS USED: competitive displacement of 1-NPN (2 µM), 2 μM TabsPBP2, pH 7.4
pIC50: −log10 of the molar value.
ENDPOINT LABEL: pIC50

>>> recorded_value("CC1=CC2C(CC1)C2(C)C (stereo not drawn) [2-carene, 2-Carene]")
5.13
>>> recorded_value("C=C1CCC2(C(C)C)CC12 (stereo not drawn) [sabinene, Sabinene]")
4.87
>>> recorded_value("CC1=CCC2CC1C2(C)C (stereo not drawn) [α-pinene, α-Pinene]")
5.00
